System: NCI-H460 lung
Assay: NCI-60 one-dose screen, 48 h
Conditions: 10 µM unless noted
About 83,000 compounds went through this panel and 20% of them were active in at least one assay; those are over-represented in the sample as a whole. Activity calls are given as the source filed them. Rule for the calls: active = growth percent below 10; inactive = the rest.
Outcome codes: active, inactive

| compound | group label |
| --- | --- |
| COC(=O)c1c(C)nc(C)c2c1C(=O)C=C(NCc1ccccc1)C2=O | inactive |
| Nc1nc(C(=O)N/N=C/c2ccc(F)cc2)nn1-c1ccc(S(N)(=O)=O)cc1 | inactive |
| Cc1cn(C)cn1 | inactive |
| COc1cc2c(cc1OCCCN1CCN(C(=S)SCCC(C#N)(c3ccccc3)c3ccccc3)CC1)N=C[C@@H]1CCCN1C2=O | active |
| C=C(C)[C@@H]1CC[C@]2(C)[C@H](C=CC3=C4C[C@@](C)(CO)CC[C@]4(C)CC[C@]32C)[C@@]1(C)CCCN | active |
| C=C1SC(=Nc2ccccc2Cl)N(C(=O)c2sc3ccccc3c2Cl)C1(C)C | inactive |
| O=c1oc2c(cnc3ccccc32)cc1-c1cccc(Cl)c1 | inactive |
| COC12C=C/C(=C(/C(=O)OCc3cncnc3)C(=O)CCCCCCCCC3(OC)C=C/C(=C(/C(=O)OCc4cncnc4)C(=O)CCCCCCCC1)O3)O2 | active |
| CS(=O)(=O)Nc1cc(-c2ccc3ncnc(Nc4ccc(OCc5ccccn5)c(Cl)c4)c3c2)cnc1Cl | active |
| COc1cc2c3c(c4c5ccccc5[nH]c4c2c(OC)c1OC)C(=O)N(CCN1CCCCC1)C3=O | active |
| COC1/C=C/OC2(C)Oc3c(C)c(O)c4c(O)c(c(/C=N/N(c5ccccc5)c5ccccc5)c(O)c4c3C2=O)NC(=O)C(C)=C/C=C/C(C)C(O)C(C)C(O)C(C)C(OC(C)=O)C1C (stereo not drawn) | inactive |
| O=C(/C=C/c1ccccc1)N(C1CCCCC1)C1CCCCC1 | inactive |
| Cn1c(=O)[nH]c(=O)c2nc3c(nc21)-c1ccccc1C3=O | inactive |
| CC(C)(Sc1cc(C(C)(C)C)c(O)c(C(C)(C)C)c1)Sc1cc(C(C)(C)C)c(OC(=O)CCC(=O)O)c(C(C)(C)C)c1 | inactive |
| O=C(c1ccc(Br)cc1)C(Br)C(c1ccc(Cl)cc1)C(c1ccccc1)[N+](=O)[O-] (stereo not drawn) | inactive |
| CCOc1ncc([N+](=O)[O-])c(OCC)n1 | inactive |
| Clc1ccc(Nc2ncc(Cc3cccc(Cl)c3Cl)s2)cc1 | inactive |
| N#CSc1c[nH]c2ccc(/C=C/C(=O)/C=C(O)/C=C/c3ccc4[nH]cc(SC#N)c4c3)cc12 | inactive |
| C[N+]1=C(/C=C/c2ccccc2Cl)C(C)(C)c2ccccc21 | inactive |
| O=C(O)c1cn(C2CC2)c2cc(N3CCN(C(=O)N4CCOCC4)CC3)c(F)cc2c1=O | inactive |
| COc1ccc(C(=O)Nc2ncc(Cc3ccc(Cl)cc3)s2)cc1 | active |
| Cc1sc2nc(NCCN)[nH]c(=O)c2c1C | inactive |
| CCN(CCNc1ccc(C)c2sc3cc(Cl)ccc3c(=O)c12)CC(C)(C)O | inactive |
| [N-]=[N+]=NCC1OC(n2cnc3c(NC(=O)Nc4ccccc4)ncnc32)C2OC(=O)CC12 (stereo not drawn) | inactive |
| O=C(CSc1nnnn1-c1ccccc1)Nc1ccc(Oc2ccccc2)cc1 | inactive |
| CCN1C(=O)N(c2ccccc2)C2NC(=S)N(/N=C/C=C/c3ccccc3OC)C21 (stereo not drawn) | active |
| Cc1ccc(S(=O)(=O)OCC#CCOS(=O)(=O)c2ccc(C)cc2)cc1 | inactive |
| Nc1ncnc2c1N=C(c1ccc(Cl)cc1)CC(c1cccc(Nc3ccnc4cc(Cl)ccc34)c1)N2 (stereo not drawn) | inactive |
| COc1cc2c(c(OC)c1OC)C(=O)CC(c1cccc(C(=O)Nc3ccc(C#N)cc3)c1)O2 (stereo not drawn) | inactive |
| Cc1ccc(C2CC(c3cccc(Nc4ccncc4)c3)=Nc3c(N)nc(N)nc3N2)cc1 (stereo not drawn) | inactive |
| Cc1oc(-c2ccc(Cl)cc2)nc1C1=NN(C(=O)c2ccncc2)C(c2ccccc2)C1 (stereo not drawn) | inactive |
| COc1ccc(-c2nc3c(c(-c4ccc(Cl)cc4)nn3-c3ccccc3)c(-c3ccccc3)c2C#N)cc1 | inactive |
| O=C(/C=C/C12c3ccccc3C(c3ccccc31)C1C(=O)NC(=O)C12)c1ccco1 (stereo not drawn) | inactive |
| Cn1cc(-c2csc(-c3cn(CCCN4CCOCC4)c4ccc(F)cc34)n2)c2cccnc21 | inactive |
| COC(=O)c1nc(-c2ccccc2)oc1S(=O)(=O)N1CCCC(C)C1 (stereo not drawn) | inactive |
| COc1ccc(/C=C/C(c2cc(OC)c(OC)c(OC)c2)n2cncn2)cc1O (stereo not drawn) | inactive |
| CN(C)CCCn1c2c(c3ccncc3c1=O)C(=O)c1ccccc1-2 | active |
| CC(C)(C)c1ccc(C(=O)N/N=C/c2ccc(O)cc2O)cc1 | active |

Data provenance: PubChem BioAssay (NCI)
